Method description: Times to onset, minimal and maximal, observed in the indexed observations. [column 'DELAI' in source]
Assay conditions: human
Assay readout: Hepatotoxicity (time to onset)

Answered examples (3):
Given the compound Cc1c(OCC(F)(F)F)ccnc1C[S+]([O-])c1nc2ccccc2[nH]1 (stereo unspecified) [LANSOPRAZOLE] , write its reported Hepatotoxicity (time to onset).
13 days - 5 weeks

Given the compound CO[C@H]1C[C@H](O[C@H]2[C@H](C)[C@@H](O[C@@H]3O[C@H](C)C[C@H](N(C)C)[C@H]3OC(C)=O)[C@@H](C)C[C@@]3(CO3)C(=O)[C@H](C)[C@@H](OC(C)=O)[C@@H](C)[C@@H](C)OC(=O)[C@@H]2C)O[C@@H](C)[C@@H]1OC(C)=O [TROLEANDOMYCIN] , write its reported Hepatotoxicity (time to onset).
3 days - 2 weeks

Given the compound O=C1CC2(CCCC2)CC(=O)N1CCCCN1CCN(c2ncccn2)CC1 [BUSPIRONE] , write its reported Hepatotoxicity (time to onset).
26 days

For each of the items listed, what is its Hepatotoxicity (time to onset)?
1. O=NN(CCCl)C(=O)NC1CCCCC1 [LOMUSTINE]
2. CCc1ccc(CCOc2ccc(CC3SC(=O)NC3=O)cc2)nc1 (stereo unspecified) [PIOGLITAZONE]
3. CCN[C@@H](C)Cc1cccc(C(F)(F)F)c1 [DEXFENFLURAMINE]

1: 2 days - 4 months; 2: 23 days - 7 months; 3: 4 years

For each of the items listed, what is its Hepatotoxicity (time to onset)?
1. O=C(c1ccc(OCCN2CCCCC2)cc1)c1c(-c2ccc(O)cc2)sc2cc(O)ccc12 [RALOXIFENE]
2. C[C@]12C=CC(=O)C=C1CC[C@@H]1[C@@H]2CC[C@@]2(C)[C@H]1CC[C@]2(C)O (stereo in doubt; form 1) [METHANDROSTENOLONE]
3. CC(C)(C)NC(=O)[C@@H]1C[C@@H]2CCCC[C@@H]2CN1C[C@@H](O)[C@H](Cc1ccccc1)NC(=O)[C@H](CC(N)=O)NC(=O)c1ccc2ccccc2n1
4. O=C(c1ccccc1)c1ccc2n1CCC2C(=O)O (stereo unspecified) [KETOROLAC]
5. CCc1oc2ccccc2c1C(=O)c1cc(I)c(O)c(I)c1 [BENZIODARONE]
6. O=C(O)c1cc(/N=N/c2ccc(O)c(C(=O)O)c2)ccc1O [OLSALAZINE]

["30 days", "1 year - 2 years", "< 1 day - 6 months", "1 day - 10 days", "1 month - 4 months", "3 weeks"]

---

Assay conditions: human, Liver
Kindly supply the reported Hepatotoxicity (granulomatous hepatitis) values for the records listed here.

Answered examples (5):
Given the compound COc1ccc2c3c1O[C@H]1[C@@H](O)C=C[C@H]4[C@@H](C2)N(C)CC[C@@]341 , write its reported Hepatotoxicity (granulomatous hepatitis).
1

Given the compound Cc1cccc(Nc2ccccc2C(=O)O)c1C , write its reported Hepatotoxicity (granulomatous hepatitis).
0

Given the compound CCCCNC(=N)NC(=N)N , write its reported Hepatotoxicity (granulomatous hepatitis).
0

Given the compound Cc1ncc(CO)c(CO)c1O , write its reported Hepatotoxicity (granulomatous hepatitis).
0

Given the compound CCCN[C@H]1CCc2nc(N)sc2C1 [PRAMIPEXOLE] , write its reported Hepatotoxicity (granulomatous hepatitis).
0

Could you now look at the following compound, please?
Given the compound Nc1ccc(S(=O)(=O)c2ccc(N)cc2)cc1 , write its reported Hepatotoxicity (granulomatous hepatitis).
3
